- assay_explanation: Cytotoxicity in MDCK cells assessed as reduction in cell viability incubated for 72 hrs by cell-titer-Glo cell viability assay
- Format: cell-based, Canis lupus familiaris
- condition_details: dog
readout: CC50 at 72 h

# query: CC50 at 72 h of entry CCOC(=O)C1=C[C@@H](OC(CC)CC)[C@H](NC(C)=O)[C@@H](N)C1 [OSELTAMIVIR]
> 100 µM

###

- Tested on: Influenza A virus
- assay_explanation: Antiviral activity against Influenza A virus (A/Puerto Rico/8/1934(H1N1)) infected in HEK293T cells assessed as inhibition of viral replicon activity incubated for 30 hrs by dual-Glo luciferase assay
- Format: functional, organism-based
- condition_details: HEK-293T
readout: pEC50
Scale for pEC50: -log10 of concentration given in mol/L; no unit attached.

# query: pEC50 of entry `CCOC(=O)C1=C[C@@H](OC(CC)CC)[C@H](NC(C)=O)[C@@H](N)C1`
5.83
